assay: viability loss in pontine glioma line – cell-based, SU-DIPG-IV, MIPE4.0, CellTiter-Glo, qHTS, dose response (AID 1347063); conditions: CellTiter-Glo ATP luminescence;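 further: compound exposure lasted 48 hours before the viability readout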
Results filed as inconclusive are left out. Activity calls are given as the source filed them. Cut-off not given; nearly all actives show AC50 up to about 30 µM.
Would you mind answering with one of these outcomes? active, inactive

Observe how each entry below is paired with its result.
Which outcome did this test record for the molecule "Cc1c(C(=O)Nc2ccc(N3C[C@@H](C)O[C@@H](C)C3)nc2)cccc1-c1ccc(OC(F)(F)F)cc1" ?
active

Outcome logged for "CC/C=C\C[C@H]1C(=O)CC[C@@H]1CC(=O)OC" in this assay:
inactive

Would you mind telling me which call this test gave "Clc1cccc(-c2nnnn2Cc2cccnc2)c1Cl" ?
inactive

Write down the call the test reported for this molecule. Item: Clc1ccc(C(c2ccc(Cl)cc2)n2cc[n+](CC(OCc3ccc(Cl)cc3Cl)c3ccc(Cl)cc3Cl)c2)cc1 (stereo not given)
active

// switching to the query molecule
Give the logged outcome of this assay for the following molecule: "CCN(CC)CCCCNc1ncc2cc(-c3cc(OC)cc(OC)c3)c(NC(=O)NC(C)(C)C)nc2n1"
active

###

assay: drug combination growth inhibition, ovarian cancer – cell-based, oncology-focused library, rucaparib conditional, profiling panel (AID 1508598); settings: patient-derived ovarian cancer cells, CellTiter-Glo viability, 144 h; at 0.313 µM; OCI-P5x cells; with rucaparib 20 µM; 100% = cells with rucaparib alone
The source made the active and inactive calls.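 Rule for the calls: active = normalized viability below 100% at a tested concentration; inactive = the rest.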
Outcomes you can answer with include only these: 1 for active, -1 for inactive

How was "O=C(Nc1cccc(Cl)c1)Nc1ncc(CCNc2ncnc3ccsc23)s1" classified in this test?
1

# outcome recorded in this test, key = "Cc1c(NC(=O)OC[C@@H]2COCCN2)cn2ncnc(Nc3ccc4c(cnn4Cc4cccc(F)c4)c3)c12"
-1

Which outcome was assigned to "COC(=O)Nc1ccc(-c2nc(N3CCOCC3)c3cnn(C4CCN(C(=O)OC)CC4)c3n2)cc1" in this test?
-1

Which result was noted for this compound in the test: "CC1(COc2ccc3c(c2)ncn3-c2ccc3cccc(N4CCC(N)CC4)c3n2)COC1"
-1

Outcome? "NC(=O)Nc1cc(-c2cccc(F)c2)sc1C(=O)N[C@H]1CCCNC1"
1

Entry "CC(C)c1cc(-c2n[nH]c(=O)n2-c2ccc3c(ccn3C)c2)c(O)cc1O" : call = ?
1

Can you look up the reported call for "COc1nc(C)cnc1NS(=O)(=O)c1cccnc1-c1ccc(-c2nnco2)cc1" for me?
-1

Field: outcome | Entry: "CC(C)(C)c1cc(NC(=O)Nc2ccc(-c3cn4c(n3)sc3cc(OCCN5CCOCC5)ccc34)cc2)no1"
1

Now look at this entry.
Recorded test call requested for "C=CC(=O)Nc1cccc(Nc2nc(Nc3ccc(NC4CN(CCF)C4)cc3OC)ncc2C(F)(F)F)c1"
-1

###

assay: viability loss with induced miR-34 in A549 – imaging, A549 dox-inducible miR-34, nuclei and caspase counts, primary screen (AID 1347080); conditions: A549 miR-34 inducible, Hoechst nuclei count, 48 h; measured here: total cells with miR-34 induction; stronger effect = lower value
Measure name: cell count
Keep the answer to the number alone.

See these solved cases before continuing.
Fill in: cell count of "CCCn1c(=O)[nH]c2nc(-c3ccc(S(=O)(=O)O)cc3)[nH]c2c1=O" is ___
7230

# cell count lookup, item "CNC(=O)c1ccc2c(C(=Nc3cccc(CN(C)C)c3)c3ccccc3)c(O)[nH]c2c1"
7720

May I ask what cell count has been recorded for "Cc1nc2c(O)cccc2c(=O)[nH]1" ?
9130

---
What does the record list as cell count for COc1ccc(C2CC(c3c(O)cc(C)oc3=O)=NCCS2)c(OC)c1 (stereo not drawn) ?
1350

Any idea what its cell count is? The compound is "CCCCC/C=C/C/C=C/CCCCCCCC(=O)O"
6880

Given the entry "C[C@@H](O)CCC[C@H](O)/C=C/C1=C(C/C=C\CCCC(=O)O)C(=O)CC1" , report its measured cell count.
5730
